Origin of the recorded values: ChEMBL document CHEMBL4000149

- ASSAY PROCEDURE: Toxicity in human erythrocytes assessed as hemolysis after 1 hr
- Format: cell-based, Erythrocyte
Numbered stars: 1 amine (or outer) side, 2 acyl side, 3 side chain; on linkers, the order of the positions; unused ones are H or OH. Bridge positions count the residues as written; N and C are the ends. Square brackets hold non-standard residues; d marks the D form. Peptide text beside a SMILES is read from it. ξ: configuration not given here. Bip = N[C@@H](Cc1ccc(-c2ccccc2)cc1)C(=O)O; Dip = N[C@H](C(=O)O)C(c1ccccc1)c1ccccc1; 2Nal = N[C@@H](Cc1ccc2ccccc2c1)C(=O)O; X1 = NC(CCN[*:2])C(=O)[*:1]; ξAoc(2) = CCCCCCC(N)C(=O)O; ξDab = NCCC(N)C(=O)O; GABA = NCCCC(=O)O
Returns: string. Value is 1 if measured EC50 at 1 hr is below 60 µM, and -1 if it is greater than or equal to it.

Prompt: State whether 60 µM exceeds EC50 at 1 hr recorded for CC(C)C[C@@H]1NC(=O)C(N)CCNC(=O)CCCNC(=O)[C@H](Cc2ccc3ccccc3c2)NC(=O)[C@H](CCCNC(=N)N)NC(=O)[C@H](CC(C)C)NC(=O)[C@H](Cc2ccc3ccccc3c2)NC(=O)[C@H](CCCNC(=N)N)NC1=O (some centres undefined) (H-[ξDab]LR[2Nal]LR[2Nal][GABA]; lactam 1-C) .
Completion: -1

Prompt: State whether 60 µM exceeds EC50 at 1 hr recorded for CCCCCCC1NC(=O)[C@@H](Cc2ccc3ccccc3c2)NC(=O)[C@H](CCCNC(=N)N)NC(=O)[C@H](CC(C)C)NC(=O)CNC(=O)[C@H](Cc2ccc3ccccc3c2)NC(=O)[C@H](CCCNC(=N)N)NC1=O (some centres undefined) .
Completion: 1

Prompt: State whether 60 µM exceeds EC50 at 1 hr recorded for CC(C)C[C@@H]1NC(=O)CNC(=O)[C@H](Cc2ccc(-c3ccccc3)cc2)NC(=O)[C@H](CCCNC(=N)N)NC(=O)[C@H](CC(C)C)NC(=O)[C@H](Cc2ccc(-c3ccccc3)cc2)NC(=O)[C@H](CCCNC(=N)N)NC1=O (cyclo([Bip]GLR[Bip]LR)) .
Completion: 1

Prompt: State whether 60 µM exceeds EC50 at 1 hr recorded for CC(C)C[C@@H]1NC(=O)CNC(=O)[C@H](Cc2ccc3ccccc3c2)NC(=O)[C@H](CCCCN)NC(=O)[C@H](CC(C)C)NC(=O)[C@H](Cc2ccc3ccccc3c2)NC(=O)[C@H](CCCNC(=N)N)NC1=O (cyclo([2Nal]GLR[2Nal]LK)) .
Completion: -1

Prompt: State whether 60 µM exceeds EC50 at 1 hr recorded for CCCCCCC1NC(=O)[C@H](Cc2ccc3ccccc3c2)NC(=O)[C@H](CCCNC(=N)N)NC(=O)[C@H](CC(C)C)NC(=O)C(N)CCNC(=O)C(N)CCNC(=O)[C@H](Cc2ccc3ccccc3c2)NC(=O)[C@H](CCCNC(=N)N)NC1=O (some centres undefined) (H-[ξDab]LR[2Nal][ξAoc(2)]R[2Nal]; linker 1-C via X1) .
Completion: 1

Prompt: State whether 60 µM exceeds EC50 at 1 hr recorded for CC(C)C[C@@H]1NC(=O)CNC(=O)[C@@H](Cc2ccc3ccccc3c2)NC(=O)[C@H](CCCNC(=N)N)NC(=O)[C@H](CC(C)C)NC(=O)[C@H](Cc2ccc3ccccc3c2)NC(=O)[C@H](CCCNC(=N)N)NC1=O .
Completion: -1

Prompt: State whether 60 µM exceeds EC50 at 1 hr recorded for CC(C)C[C@@H]1NC(=O)C(N)CCNC(=O)[C@H](Cc2ccc3ccccc3c2)NC(=O)[C@H](CCCNC(=N)N)NC(=O)[C@H](CC(C)C)NC(=O)[C@H](Cc2ccc3ccccc3c2)NC(=O)[C@H](CCCNC(=N)N)NC1=O (some centres undefined) (H-[ξDab]LR[2Nal]LR[2Nal]; lactam 1-C) .
Completion: -1

Prompt: State whether 60 µM exceeds EC50 at 1 hr recorded for CCCCCC[C@H]1NC(=O)[C@H](Cc2ccc3ccccc3c2)NC(=O)[C@H](CCCNC(=N)N)NC(=O)[C@H](CC(C)C)NC(=O)CNC(=O)[C@H](Cc2ccc3ccccc3c2)NC(=O)[C@H](CCCNC(=N)N)NC1=O .
Completion: 1

Prompt: State whether 60 µM exceeds EC50 at 1 hr recorded for CC(C)C[C@@H]1NC(=O)CNC(=O)[C@H](C(c2ccccc2)c2ccccc2)NC(=O)[C@H](CCCNC(=N)N)NC(=O)[C@H](CC(C)C)NC(=O)[C@H](C(c2ccccc2)c2ccccc2)NC(=O)[C@H](CCCNC(=N)N)NC1=O (cyclo([Dip]GLR[Dip]LR)) .
Completion: -1

###

Answer each item with its documented MIC.
- Test system: Acinetobacter baumannii
- ASSAY PROCEDURE: Antimicrobial activity against multidrug-resistant Acinetobacter baumannii ATCC BAA-1605 by tube dilution method
- Format: functional
Numbered stars: 1 amine (or outer) side, 2 acyl side, 3 side chain; on linkers, the order of the positions; unused ones are H or OH. Bridge positions count the residues as written; N and C are the ends. Square brackets hold non-standard residues; d marks the D form. Peptide text beside a SMILES is read from it. ξ: configuration not given here. Dip = N[C@H](C(=O)O)C(c1ccccc1)c1ccccc1; NH(CH2)9CO = O=C(CCCCCCCCCN[*:1])[*:2]; 2Nal = N[C@@H](Cc1ccc2ccccc2c1)C(=O)O; Cha = N[C@@H](CC1CCCCC1)C(=O)O; X1 = NC(CCN[*:2])C(=O)[*:1]; ξAoc(2) = CCCCCCC(N)C(=O)O; Aoc = NCCCCCCCC(=O)O; ξDab = NCCC(N)C(=O)O; GABA = NCCCC(=O)O
Report as a plain number; the unit µM is understood.

Prompt: Report its MIC with Acinetobacter baumannii as the test system: CC(C)C[C@@H]1NC(=O)CNC(=O)[C@H](Cc2c[nH]c3ccccc23)NC(=O)[C@H](CCCCN)NC(=O)[C@H](CC(C)C)NC(=O)[C@H](Cc2c[nH]c3ccccc23)NC(=O)[C@H](CCCCN)NC1=O (cyclo(GLKWLKW))
Completion: 128

Prompt: Report its MIC with Acinetobacter baumannii as the test system: CC(C)C[C@@H]1NC(=O)[C@H](Cc2ccc3ccccc3c2)NC(=O)[C@H](CCCNC(=N)N)NC(=O)[C@H](CC2CCCCC2)NC(=O)CNC(=O)[C@H](Cc2ccc3ccccc3c2)NC(=O)[C@H](CCCNC(=N)N)NC1=O (cyclo([2Nal]G[Cha]R[2Nal]LR))
Completion: 64

Prompt: Report its MIC with Acinetobacter baumannii as the test system: CC(C)C[C@@H]1NC(=O)CCCCCCCCCNC(=O)[C@H](Cc2ccc3ccccc3c2)NC(=O)[C@H](CCCNC(=N)N)NC(=O)[C@H](CC(C)C)NC(=O)[C@H](Cc2ccc3ccccc3c2)NC(=O)[C@H](CCCNC(=N)N)NC1=O (cyclo([2Nal]LR[2Nal][NH(CH2)9CO]LR))
Completion: 16

Prompt: Report its MIC with Acinetobacter baumannii as the test system: CC[C@H](C)[C@@H]1NC(=O)[C@H](Cc2ccc3ccccc3c2)NC(=O)[C@H](CCCNC(=N)N)NC(=O)[C@H]([C@@H](C)O)NC(=O)CCCCCCCNC(=O)[C@H](Cc2ccc3ccccc3c2)NC(=O)[C@H](CCCNC(=N)N)NC1=O (cyclo([2Nal][Aoc]TR[2Nal]IR))
Completion: 128

Prompt: Report its MIC with Acinetobacter baumannii as the test system: CC(C)C[C@@H]1NC(=O)[C@H](Cc2ccc3ccccc3c2)NC(=O)[C@H](CCCNC(=N)N)NC(=O)[C@H](CC(C)C)NC(=O)[C@@H](N)CCCCNC(=O)[C@H](Cc2ccc3ccccc3c2)NC(=O)[C@H](CCCNC(=N)N)NC1=O (H-KLR[2Nal]LR[2Nal]; lactam 1-C)
Completion: 32

Prompt: Report its MIC with Acinetobacter baumannii as the test system: CC(C)C[C@@H]1NC(=O)CCCCCCCNC(=O)[C@H](Cc2ccc3ccccc3c2)NC(=O)[C@H](CCCNC(=N)N)NC(=O)[C@H](CC(C)C)NC(=O)[C@H](Cc2ccc3ccccc3c2)NC(=O)[C@H](CCCNC(=N)N)NC1=O (cyclo([2Nal][Aoc]LR[2Nal]LR))
Completion: 8

Prompt: Report its MIC with Acinetobacter baumannii as the test system: CC(C)C[C@@H]1NC(=O)C(N)CCNC(=O)CCCNC(=O)[C@H](Cc2ccc3ccccc3c2)NC(=O)[C@H](CCCNC(=N)N)NC(=O)[C@H](CC(C)C)NC(=O)[C@H](Cc2ccc3ccccc3c2)NC(=O)[C@H](CCCNC(=N)N)NC1=O (some centres undefined) (H-[ξDab]LR[2Nal]LR[2Nal][GABA]; lactam 1-C)
Completion: 64

Prompt: Report its MIC with Acinetobacter baumannii as the test system: CCCCCCC1NC(=O)[C@H](Cc2ccc3ccccc3c2)NC(=O)[C@H](CCCNC(=N)N)NC(=O)[C@H](CC(C)C)NC(=O)C(N)CCNC(=O)C(N)CCNC(=O)[C@H](Cc2ccc3ccccc3c2)NC(=O)[C@H](CCCNC(=N)N)NC1=O (some centres undefined) (H-[ξDab]LR[2Nal][ξAoc(2)]R[2Nal]; linker 1-C via X1)
Completion: 64

Prompt: Report its MIC with Acinetobacter baumannii as the test system: CC(C)C[C@@H]1NC(=O)CCCNC(=O)[C@H](Cc2ccc3ccccc3c2)NC(=O)[C@H](CCCNC(=N)N)NC(=O)[C@H](CC(C)C)NC(=O)[C@H](Cc2ccc3ccccc3c2)NC(=O)[C@H](CCCNC(=N)N)NC1=O (cyclo([2Nal][GABA]LR[2Nal]LR))
Completion: 128

Prompt: Report its MIC with Acinetobacter baumannii as the test system: CC(C)C[C@@H]1NC(=O)CNC(=O)[C@H](C(c2ccccc2)c2ccccc2)NC(=O)[C@H](CCCNC(=N)N)NC(=O)[C@H](CC(C)C)NC(=O)[C@H](C(c2ccccc2)c2ccccc2)NC(=O)[C@H](CCCNC(=N)N)NC1=O (cyclo([Dip]GLR[Dip]LR))
Completion: 64
